- Protocol Notes: adipocyte viability effects, profiling panel, cell-based, 3T3-L1 adipocytes, calcein-AM fluorescence, 48 h, basal (AID 1163); further: test concentration not given here
- Conditions: 3T3-L1 adipocytes viability, higher = more signal
# note: exactly 0.3 is not below, so it is No; use Yes for z-score strictly under it

Query: Is the reported z-score for COc1ccc(COC(=O)NN=C2C[C@@H](O)[C@@H](O)[C@@H]3[C@@H]4C(=O)N(c5ccc(F)cc5F)C(=O)[C@@H]4CC[C@@H]23)cc1 strictly below 0.3?
Result: Yes

Query: Is the reported z-score for COCCOC(=O)N1C(=O)[C@@]2(c3ccccc31)[C@H](C(N)=O)[C@H]1C(=O)O[C@H](c3ccccc3)[C@H](c3ccccc3)N1[C@@H]2c1ccccc1OCCO strictly below 0.3?
Result: No

Query: Is the reported z-score for CCOC(=O)[C@H](CC(C)C)NC(=O)CCC1CC(OC(=O)NCc2cccc3ccccc23)CC2(CCCC(COC(=O)NCCc3ccccc3OC)O2)O1 (stereo partly specified) strictly below 0.3?
Result: Yes

Query: Is the reported z-score for CC(=O)C[C@H](O)[C@@H](NC(=O)OC(C)(C)C)C(C)C strictly below 0.3?
Result: No

Query: Is the reported z-score for O=C1[C@H]2[C@H]3[C@H](O)[C@H](O)CC(=NOCc4ccccc4)[C@H]3CC[C@H]2C(=O)N1C[C@@H]1CCCO1 strictly below 0.3?
Result: Yes

Query: Is the reported z-score for C=COC[C@H]1CN2[C@@H](CC[C@@H](C)[C@@H]2c2ccc(Br)cc2)C(=O)O1 strictly below 0.3?
Result: No

Query: Is the reported z-score for CO[C@@H]1COC(=O)CC=C[C@@H](C)COC(=O)[C@H](COCc2ccccc2)NC(=O)CC=C[C@H]1C strictly below 0.3?
Result: Yes

Query: Is the reported z-score for CO[C@H]1COC(=O)[C@H](C)NC(=O)[C@@H](C)COC(=O)CC=C[C@@H]1C strictly below 0.3?
Result: Yes

Query: Is the reported z-score for O=C1c2ccccc2[C@@]2(Cc3ccccc3N(C3CC3)C2=O)[C@H](c2ccc(CO)cc2)N1Cc1ccccc1C(F)(F)F strictly below 0.3?
Result: No

Query: Is the reported z-score for Cc1ccc(C2CC=C(C(=O)O)CN2S(=O)(=O)c2ccc(C)cc2)cc1 (stereo unspecified) strictly below 0.3?
Result: Yes

Query: Is the reported z-score for CC(C)CN1CCc2nc(-c3ccccc3)c3c(c2CC1)CO[C@@H](C)C3 strictly below 0.3?
Result: No

Query: Is the reported z-score for CN(C)c1ccc(C(O)C2C=CC3C(=O)N(c4ccccc4)C(=O)C3N2Nc2ccccc2F)cc1 (stereo unspecified) strictly below 0.3?
Result: Yes

Query: Is the reported z-score for CC(C)(C)N1C(=O)[C@H]2[C@H]3[C@H](O)[C@H](O)CC(=NOCc4ccccc4)[C@@H]3CC[C@H]2C1=O strictly below 0.3?
Result: Yes

Query: Is the reported z-score for CN(C)CCCNC(=O)[C@@H]1c2ccccc2C(=O)N(Cc2ccccc2)[C@H]1c1ccc(CO)cc1 strictly below 0.3?
Result: No

Query: Is the reported z-score for O=C1[C@H]2[C@H]3[C@H](O)[C@H](O)CC(=NOCc4ccccc4)[C@@H]3CC[C@H]2C(=O)N1C1CCCCC1 strictly below 0.3?
Result: Yes

Query: Is the reported z-score for C[C@@H](c1ccccc1)N1C(=O)[C@H]2[C@H]3[C@H](O)[C@H](O)CC(=NOC[C@@H](O)COCc4ccco4)[C@@H]3CC[C@H]2C1=O strictly below 0.3?
Result: Yes
